# Lookup of reported TGI keyed by entry
# System: HT29 colon
# method_notes: NCI tumour cell line growth inhibition, 48 h
quantity: TGI

INSERT INTO results (compound, quantity, readout_value) VALUES
  ('O=C(/C=C/c1ccccc1)c1cc(C(=O)/C=C/c2ccccc2)c(O)cc1O', 'TGI', '> 100 µM'),
  ('CC[C@@H]([C@H](O)c1ccccc1Cl)[N+](=O)[O-]', 'TGI', '> 100 µM'),
  ('O=c1[nH]c2ccc(Cl)cc2o1', 'TGI', '> 100 µM'),
  ('CCCS(=O)c1nc(COC(=O)NC)c(COC(=O)NC)n1C (centres undefined)', 'TGI', '> 100 µM'),
  ('C(=C\c1ccncc1)/c1ccncc1', 'TGI', '> 100 µM'),
  ('Cc1ccc(N=Nc2c(O)ccc3n[nH]nc23)cc1', 'TGI', '> 100 µM'),
  ('Cc1c(NC(=O)CSC(=S)N(C)C)c(=O)n(-c2ccccc2)n1C', 'TGI', '> 100 µM'),
  ('C=CCC(N[C@H](CO)c1ccccc1)c1ccccn1 (some centres undefined)', 'TGI', '> 100 µM'),
  ('Cc1nc2sc(C(=O)Nc3ccccc3)c(N)c2cc1C(O)c1ccccc1 (centres undefined)', 'TGI', '17.6 µM'),
  ('CSc1ccc(NC(=O)Nc2cc(C)ccn2)cc1', 'TGI', '> 100 µM'),
  ('O=C(COC(=O)c1cccc2c(=O)c3ccccc3[nH]c12)Nc1ccc(Cl)cc1', 'TGI', '> 100 µM'),
  ('O=C1C(c2c(O)[nH]c3ccc(Cl)cc23)=Nc2ccccc21', 'TGI', '> 100 µM'),
  ('NCCCC(N=Cc1nc(-c2ccccc2)oc1O)C(=O)O (centres undefined)', 'TGI', '> 100 µM'),
  ('Cc1ccc(C)c(NC(=O)C(=O)C2C(=O)N(c3ccccc3)N=C2N)c1 (centres undefined)', 'TGI', '> 100 µM'),
  ('Cc1nc2c(O)c3c(c(O)c2nc1C)C1C=CC3CC1', 'TGI', '55.9 µM'),
  ('Cc1ccc2c(c1)C=CC1(O2)N(c2ccccc2)C(=S)OC1(C)C (centres undefined)', 'TGI', '> 100 µM'),
  ('CCOC(=O)CC(=O)Nc1cccc2sc3ncccc3c(=O)c12', 'TGI', '> 100 µM'),
  ('CN(C)c1cccc(OC(=O)NCCCl)c1', 'TGI', '> 100 µM'),
  ('CC1CC(=NC2CCCCC2)Nc2ccccc2N1Cc1ccccc1 (centres undefined)', 'TGI', '12.5 µM'),
  ('COc1cccc(N2CCN(c3ncnc4cc[nH]c34)CC2)c1', 'TGI', '> 100 µM'),
  ('COC(=O)C(=O)C(C(C)=O)C(=O)NCc1ccccc1 (centres undefined)', 'TGI', '> 100 µM'),
  ('CCC[CH2][Sn]([CH2]CCC)([O]C(=O)c1cc(F)ccc1F)[O]C(=O)c1cc(F)ccc1F', 'TGI', '3.17 µM'),
  ('N#CC(C(=N/O)/C(=N\O)C(C#N)c1ccccc1)c1ccccc1 (centres undefined)', 'TGI', '> 100 µM'),
  ('O=C(N=Nc1c(Cl)c(O)c2ccccc2c1O)C(=O)Nc1cccc(C(F)(F)F)c1', 'TGI', '28 µM'),
  ('COc1cc2c3cc1Oc1c(OC)c(OC)cc4c1[C@@H](Cc1ccc(O)c(c1)Oc1ccc(cc1)C[C@@H]3N(C)CC2)N(C)CC4', 'TGI', '24.1 µM'),
  ('CN(/N=C/C=N/N(C)C1=NCCCN1)C1=NCCCN1', 'TGI', '> 100 µM'),
  ('COC(=O)c1c2c(c(C)[n+]([O-])c1C)C(=O)C(NCc1ccc(F)cc1)=CC2=O', 'TGI', '> 100 µM'),
  ('C=C1CCC2[C@](C)(CCC[C@]2(C)C(=O)O)[C@@H]1CCc1ccoc1 (some centres undefined)', 'TGI', '55.7 µM'),
  ('O=[N+]([O-])c1cccc(-c2cn3c(n2)Cc2ccccc2C3)c1', 'TGI', '> 100 µM');
